- Test system: Fibroblast
- TEST_DESCRIPTION: Multiplex assay against human fibroblast
- Assay type: toxicity, cell-based
- CONDITION: 48 h, 10 µM, compound concentration 10 uM, replicate 2
Values of Population Hoechst High Intensity Objects (%) greater than or equal to 3% map to MET; values below map to NOT MET.

// inclusive: Population Hoechst High Intensity Objects (%) at least 3%? input: C[C@H]1[C@H]2CC[C@H]3[C@@H]4CC=C5C[C@@H](N(C)C)CC[C@]5(C)[C@H]4CC[C@]23CN1C
NOT MET

For the next question, use this compound.
// inclusive: Population Hoechst High Intensity Objects (%) at least 3%? input: CCOc1c2c(c(OCC)c3ncccc13)CN(c1ccc(CS(=O)(=O)NC(=O)Cc3ccccc3OC)cc1C)C2=O
MET

* * *

- Test system: U2OS
- TEST_DESCRIPTION: Multiplex assay against U2OS
- Format: toxicity, cell-based
- CONDITION: human, 48 h, 10 µM, compound concentration 10 uM, replicate 1
Overview of reported Population Membrane Permeable-Phenotype (%) across a group of compounds:
Express your answer in %, writing the number without its unit.

# lookup: Population Membrane Permeable-Phenotype (%) of N[C@@]1(C(=O)O)CO[C@H]2[C@H](C(=O)O)[C@H]21
9

* * *

- Test system: HEK-293T
- TEST_DESCRIPTION: Multiplex assay against HEK293T
- Type: toxicity, cell-based
- CONDITION: human, 12 h, 1 µM, compound concentration 1 uM, replicate 2
Just a reminder that ties go to Not met: only Population Apoptotic (%) strictly below 50% counts as Met.

Reference set, count: 7
# strict comparison: is reported Population Apoptotic (%) < 50%? input = CC1(COc2ccc3c(c2)ncn3-c2ccc3cccc(N4CCC(N)CC4)c3n2)COC1 [CRENOLANIB]
Met

# strict comparison: is reported Population Apoptotic (%) < 50%? input = CC(C)(C)c1ccc(S(=O)(=O)Nc2ccc(Cl)cc2C(=O)c2cc[n+]([O-])cc2)cc1 [VERCIRNON]
Not met

# strict comparison: is reported Population Apoptotic (%) < 50%? input = Oc1c(CN2CCN(c3ccccn3)CC2)cc(Cl)c2cccnc12
Met

# strict comparison: is reported Population Apoptotic (%) < 50%? input = Cc1ccc(C(C)(O)c2nc3ccccc3s2)c(C)c1 (centres undefined)
Met

# strict comparison: is reported Population Apoptotic (%) < 50%? input = CC(=O)NCCc1c(Cc2ccccc2)[nH]c2ccccc12 [LUZINDOLE]
Met

# strict comparison: is reported Population Apoptotic (%) < 50%? input = N#Cc1c(N)nc(SCc2csc(-c3ccc(Cl)cc3)n2)c(C#N)c1-c1ccc(OCCO)cc1 [CAPADENOSON]
Not met

# strict comparison: is reported Population Apoptotic (%) < 50%? input = Cc1ccc(F)cc1C(=O)Nc1ccc(C(=O)N2Cc3cccn3Cc3ccccc32)c(Cl)c1 [LIXIVAPTAN]
Met

Next:
# strict comparison: is reported Population Apoptotic (%) < 50%? input = CCCn1c(=O)c2[nH]c(C3CCCC3)nc2n(CCC)c1=O
Not met

* * *

- Test system: U2OS
- TEST_DESCRIPTION: Multiplex assay against U2OS
- Type: toxicity, cell-based
- CONDITION: human, 12 h, 10 µM, compound concentration 10 uM, replicate 2
Overview of reported Population Tubulin-Different-Phenotype (%) across a group of compounds:

Examples from the recorded data:
# lookup: Population Tubulin-Different-Phenotype (%) of CC(C)(C)c1ccc(S(=O)(=O)Nc2ccc(Cl)cc2C(=O)c2cc[n+]([O-])cc2)cc1
15%

# lookup: Population Tubulin-Different-Phenotype (%) of COc1ccc2c(c1)C(C(=O)N(Cc1ccc(N(C)C)cc1)c1ccc(C(C)C)cc1)CCC2.Cl (stereo not drawn)
58%

Next:
# lookup: Population Tubulin-Different-Phenotype (%) of Cc1ccc(/C(=C\CN2CCCC2)c2ccccn2)cc1
15%

* * *

- Tested on: HEK-293T
- TEST_DESCRIPTION: Multiplex assay against HEK293T
- Assay type: toxicity, cell-based
- CONDITION: human, 48 h, 1 µM, compound concentration 1 uM, replicate 1
MEASURE: Population Normal (%)
Please answer using a numeric value trailed by its unit.

Examples from the recorded data:
# lookup: Population Normal (%) of CCCn1c(=O)c2[nH]c(C3CCCC3)nc2n(CCC)c1=O
98%

# lookup: Population Normal (%) of C[C@H]1[C@H]2CC[C@H]3[C@@H]4CC=C5C[C@@H](N(C)C)CC[C@]5(C)[C@H]4CC[C@]23CN1C
97%

# lookup: Population Normal (%) of O=C(O)c1cc2ccccc2c(Cc2c(O)c(C(=O)O)cc3ccccc23)c1O
97%

Next compound, Population Normal (%) to be filled in.
# lookup: Population Normal (%) of CCCC(CCC)C(=O)O
97%

* * *

- Tested on: U2OS
- TEST_DESCRIPTION: Multiplex assay against U2OS
- Format: toxicity, cell-based
- CONDITION: human, 48 h, 1 µM, compound concentration 1 uM, replicate 1
MEASURE: Population Fragmented Nuclei (%)
Express your answer in %, writing the number without its unit.

Please state recorded Population Fragmented Nuclei (%) (tested on U2OS) of COc1c(C)cc(NC(=O)c2nn(Cc3ccc(F)cc3)c3c2CN(C(=O)c2ccc[nH]2)C[C@]3(C)C(N)=O)cc1C
18

Please state recorded Population Fragmented Nuclei (%) (tested on U2OS) of O=C(O)c1cc2ccccc2c(Cc2c(O)c(C(=O)O)cc3ccccc23)c1O [PAMOIC ACID]
16

Please state recorded Population Fragmented Nuclei (%) (tested on U2OS) of CC(=O)NCCc1c(Cc2ccccc2)[nH]c2ccccc12 [LUZINDOLE]
16

* * *

- System: HEK-293T
- TEST_DESCRIPTION: Multiplex assay against HEK293T
- Assay type: toxicity, cell-based
- CONDITION: human, 12 h, 1 µM, compound concentration 1 uM, replicate 2
MEASURE: Population Pyknosed Nuclei (%)
Express your answer in %, writing the number without its unit.

Examples from the recorded data:
# lookup: Population Pyknosed Nuclei (%) of CC(=O)NCCc1c(Cc2ccccc2)[nH]c2ccccc12 [LUZINDOLE]
13

# lookup: Population Pyknosed Nuclei (%) of CC[C@H]1OC(=O)[C@H](C)[C@@H](O[C@H]2C[C@@](C)(OC)[C@@H](O)[C@H](C)O2)[C@H](C)[C@@H](O[C@@H]2O[C@H](C)C[C@H](N(C)C)[C@H]2O)[C@@]2(C)CC(C)=C(O2)[C@H](C)[C@@H](O)[C@]1(C)O
11

# lookup: Population Pyknosed Nuclei (%) of C[C@H](NC(=O)c1c(C(F)F)nn(C)c1Oc1cccc(C(F)(F)F)c1)c1ccc(C(=O)O)cc1 [PALUPIPRANT]
10

Next compound, Population Pyknosed Nuclei (%) to be filled in.
# lookup: Population Pyknosed Nuclei (%) of CCCN1CCC[C@@H]2Cc3n[nH]cc3C[C@H]21.Cl [QUINPIROLE HYDROCHLORIDE]
12

* * *

Overview of reported Population Mitotic Cells (%) across a group of compounds:
- System: U2OS
- TEST_DESCRIPTION: Multiplex assay against U2OS
- Type: toxicity, cell-based
- CONDITION: human, 12 h, 10 µM, compound concentration 10 uM, replicate 2
Express your answer in %, writing the number without its unit.

# lookup: Population Mitotic Cells (%) of COc1c(C)cc(NC(=O)c2nn(Cc3ccc(F)cc3)c3c2CN(C(=O)c2ccc[nH]2)C[C@]3(C)C(N)=O)cc1C
39

# lookup: Population Mitotic Cells (%) of O=S(=O)(c1ccccc1)c1cnc2c(N3CCNCC3)cccc2c1 [INTEPIRDINE]
14

# lookup: Population Mitotic Cells (%) of O=C(O)Cc1ccccc1Nc1c(Cl)cccc1Cl
27

* * *

- Tested on: Fibroblast
- TEST_DESCRIPTION: Multiplex assay against human fibroblast
- Assay type: toxicity, cell-based
- CONDITION: 24 h, 1 µM, compound concentration 1 uM, replicate 2
MEASURE: Population Normal (%)
Express your answer in %, writing the number without its unit.

Examples from the recorded data:
# lookup: Population Normal (%) of CC[C@H]1OC(=O)[C@H](C)[C@@H](O[C@H]2C[C@@](C)(OC)[C@@H](O)[C@H](C)O2)[C@H](C)[C@@H](O[C@@H]2O[C@H](C)C[C@H](N(C)C)[C@H]2O)[C@@]2(C)CC(C)=C(O2)[C@H](C)[C@@H](O)[C@]1(C)O
96

# lookup: Population Normal (%) of C[C@@H]1C[C@H]2[C@@H]3CCC4=CC(=O)C=C[C@]4(C)[C@@]3(F)[C@@H](O)C[C@]2(C)[C@@]1(O)C(=O)CO
93

Next:
# lookup: Population Normal (%) of Oc1c(CN2CCN(c3ccccn3)CC2)cc(Cl)c2cccnc12
94

# lookup: Population Normal (%) of CCCC(CCC)C(=O)O
92

# lookup: Population Normal (%) of CSc1ccccc1N1CCN(CCCCCC(=O)NC2CCCc3ccccc32)CC1.Cl (stereo not given)
96

Origin of values: ChEMBL document CHEMBL5058577
